Would you kindly list MIC for each of these compounds?
# Test system: Strep. faecalis I
# experiment-description: Human bacteria MIC
# Assay type: cell-based
# condition-notes: Enterococcus faecalis, nutrient agar, 5% chocolated horse blood, 18 hours 37° C.

Exercise: What does the data say about its MIC? Entry: C/C(=C\C(=O)OCCCC(=NO)c1cccs1)C[C@@H]1OC[C@H](C[C@@H]2O[C@H]2[C@@H](C)[C@H](C)O)[C@@H](O)[C@H]1O
Solution: 100 µg/mL

Exercise: Next record, please: C/C(=C\C(=O)OCCCC(=NNC(N)=O)c1ccccc1)C[C@@H]1OC[C@H](C[C@@H]2O[C@H]2[C@@H](C)[C@H](C)O)[C@@H](O)[C@H]1O [Example 2, 4-Phenyl-4-semicarbazonobutyl monate A]
Solution: > 100 µg/mL

Exercise: Next record, please: CON=C(CCCOC(=O)/C=C(\C)C[C@@H]1OC[C@H](C[C@@H]2O[C@H]2[C@@H](C)[C@H](C)O)[C@@H](O)[C@H]1O)c1ccccc1 [Example 5, 4-Methoxyimino-4-phenylbutyl monate A]
Solution: > 100 µg/mL

Exercise: Next record, please: C/C(=C\C(=O)OCc1ccc(C=NO)o1)C[C@@H]1OC[C@H](C[C@@H]2O[C@H]2[C@@H](C)[C@H](C)O)[C@@H](O)[C@H]1O [Example 7, 5-Hydroxyiminomethylfurfuryl monate A]
Solution: > 100 µg/mL

Exercise: Next record, please: C/C(=C\C(=O)OCCCCCC=NN(C)C)C[C@@H]1OC[C@H](C[C@@H]2O[C@H]2[C@@H](C)[C@H](C)O)[C@@H](O)[C@H]1O [Example 6, 6-Dimethylhydrazonohexyl monate A]
Solution: > 100 µg/mL

Exercise: Next record, please: C/C(=C\C(=O)OCCCC(=NO)c1ccccc1)C[C@@H]1OC[C@H](C[C@@H]2O[C@H]2[C@@H](C)[C@H](C)O)[C@@H](O)[C@H]1O [Example 1, 4-Hydroxyimino-4-phenylbutyl monate A]
Solution: > 100 µg/mL

Exercise: Next record, please: C/C(=C\C(=O)OC1CCC(=NO)CC1)C[C@@H]1OC[C@H](C[C@@H]2O[C@H]2[C@@H](C)[C@H](C)O)[C@@H](O)[C@H]1O (stereo partly shown) [Example 3, 4-Hydroxyiminocyclohexyl monate A]
Solution: 25 µg/mL

---

Would you kindly list MIC for each of these compounds?
# Test system: M. suipneumoniae NB12
# experiment-description: Anti-mycoplasmal activity in vitro MIC
# Type: cell-based
# condition-notes: Mesomycoplasma hyopneumoniae, 144 h; M. suipneumoniae NB12; Friis broth, 0.9% agarose, 6 days 37° C.; read-out: M.I.C.
Field format: number, assumed µg/mL, no unit text.

Exercise: What does the data say about its MIC? Entry: C/C(=C\C(=O)OCCCC(=NO)c1ccccc1)C[C@@H]1OC[C@H](C[C@@H]2O[C@H]2[C@@H](C)[C@H](C)O)[C@@H](O)[C@H]1O [Example 1, 4-Hydroxyimino-4-phenylbutyl monate A]
Solution: 0.1

Exercise: Next record, please: C/C(=C\C(=O)OC1CCC(=NO)CC1)C[C@@H]1OC[C@H](C[C@@H]2O[C@H]2[C@@H](C)[C@H](C)O)[C@@H](O)[C@H]1O (stereo partly shown) [Example 3, 4-Hydroxyiminocyclohexyl monate A]
Solution: 0.5

Exercise: Next record, please: C/C(=C\C(=O)OCCCC(=NO)c1cccs1)C[C@@H]1OC[C@H](C[C@@H]2O[C@H]2[C@@H](C)[C@H](C)O)[C@@H](O)[C@H]1O
Solution: 0.25

Exercise: Next record, please: C/C(=C\C(=O)OCCCCCC=NN(C)C)C[C@@H]1OC[C@H](C[C@@H]2O[C@H]2[C@@H](C)[C@H](C)O)[C@@H](O)[C@H]1O [Example 6, 6-Dimethylhydrazonohexyl monate A]
Solution: 0.5
